Data provenance: patent US6825230B2

As shown below, each of these compounds has a reported log10(IC50) value.
# System: chloroquine-resistant K1 strain of P. falciparum
# assay overview: In vitro antimalarial semiautomated microdilution assay ([3H]-hypoxanthine incorporation), K1 strain
# Assay type: cell-based, Plasmodium falciparum
# test context: Plasmodium falciparum, K1, 72 h, read-out: IC50 (ng/ml) K1, chloroquine-resistant K1 strain, 72 h incubation
The common logarithm of IC50 in ng/mL is what is listed.

Cc1ccc(S(=O)(=O)O)cc1.O=C(C[C@H]1CC[C@]2(CC1)OO[C@]1(O2)C2CC3CC(C2)CC1C3)N1CCNCC1    -0.68
CC(C)(C)CC(=O)N[C@H]1CC[C@]2(CC1)OOC1(O2)C2CC3CC(C2)CC1C3 (some centres unmarked)    0.34

Determine from records and report log10(IC50) for O=C(O)c1ccc(OC[C@H]2CC[C@]3(CC2)OOC2(O3)C3CC4CC(C3)CC2C4)cc1 (some centres unmarked)
1.40

Determine its reported log10(IC50): NOC[C@H]1CC[C@]2(CC1)OO[C@]1(O2)C2CC3CC(C2)CC1C3
1.45

Please list log10(IC50) recorded for the compound NCCOc1ccc([C@H]2CC[C@]3(CC2)OO[C@]2(O3)C3CC4CC(C3)CC2C4)cc1
-0.07

Read the entry O=S(=O)(C[C@H]1CC[C@]2(CC1)OO[C@]1(O2)C2CC3CC(C2)CC1C3)c1ncccn1 and write its reported log10(IC50).
0.83

====

# Tested on: ANKA strain of P. berghei
# assay overview: Single dose STI in vivo screen in infected mice
# Parameters: species or system Plasmodium berghei
# test context: single 10 mg/kg sc in 3% ethanol and 7% Tween 80; untreated 6-7 days
Structures can show the parent of a compound that is named as a salt.
// Survival (days) 10 mg/kg sc lookup, one value per entry

Study these solved cases before continuing.
O=C(O)c1ccc(C2(c3ccc(C(=O)O)cc3)OOC3(O2)C2CC4CC(C2)CC3C4)cc1 (centres unmarked) [OZ135]    5.3/5.3/5.3 days
COC(=O)c1cn(C[C@H]2CC[C@]3(CC2)OOC2(O3)C3CC4CC(C3)CC2C4)cn1 (some centres unmarked) [OZ224]    5.7 days
O=C(COc1ccc(Cl)cc1)N1CCC2(CC1)OOC1(O2)C2CC3CC(C2)CC1C3 (centres unmarked) [OZ101]    13 days

Give the observed Survival (days) 10 mg/kg sc of C1CCN(C2CCC3(CC2)OOC2(O3)C3CC4CC(C3)CC2C4)CC1 (centres unmarked) [OZ159, hydrochloride] for ANKA strain of P. berghei.
9.0 days

Find Survival (days) 10 mg/kg sc for c1cnn(C[C@H]2CC[C@]3(CC2)OOC2(O3)C3CC4CC(C3)CC2C4)c1 (some centres unmarked) [OZ211] on ANKA strain of P. berghei and write it down.
8.7 days

Tell me its Survival (days) 10 mg/kg sc on ANKA strain of P. berghei: CC(=O)OC[C@H]1CC[C@]2(CC1)OOC1(O2)C2CC3CC(C2)CC1C3 (some centres unmarked) [OZ118]
8.3 days

Give measured Survival (days) 10 mg/kg sc for COC(=O)c1ccc(C2(c3ccccc3)OOC3(O2)C2CC4CC(C2)CC3C4)cc1 (centres unmarked) [OZ138] (ANKA strain of P. berghei).
6.3 days

For ANKA strain of P. berghei, give the measured Survival (days) 10 mg/kg sc of the entry c1ccc(CNC2CCC3(CC2)OOC2(O3)C3CC4CC(C3)CC2C4)cc1 (centres unmarked) [OZ160, hydrochloride]
12.0 days
